Answer each item with its documented z-score.
Test: PSAC antagonists in infected red cells, primary screen, cell-based, P. falciparum Indochina, OD700, 2 h (AID 1155);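 further: lysis reports solute entry through the parasite surface anion channel PSAC; channel blockers reduce lysis of infected cells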
Settings: P. falciparum Indochina infected erythrocytes, osmotic lysis OD700; higher = more signal, called active from +8 up or from −8 down
Field format: numeric only.

compound COc1ccc(O[C@H]2C=C[C@@H](c3ccccc3)O[C@@H]2CON=C(C)C)cc1 , z-score observed: -0.0779

compound CC(=O)OC[C@H]1O[C@H](C#Cc2ccccc2)C=C[C@@H]1OC(C)=O , z-score observed: -0.08

compound CC[C@@H](c1ccccc1)n1c(=O)n2n(c1=O)[C@H]1[C@H](O)[C@@H]3O[C@@H]3C(=O)[C@H]1CC2 , z-score observed: -0.38

compound Cc1ccc(S(=O)(=O)N[C@H]2COC(=O)CC=C[C@H](C)[C@@H](NS(=O)(=O)c3ccc(C)cc3)COC(=O)CC=C[C@@H]2C)cc1 , z-score observed: 0.283

compound O=C(NN=C1C[C@@H](O)[C@@H](O)[C@@H]2[C@@H]3C(=O)N(Cc4ccccc4)C(=O)[C@@H]3CC[C@@H]12)OCc1ccccc1 , z-score observed: 0.801

compound O=C1[C@H]2[C@H]3[C@H](O)[C@H](O)CC(=NOCc4ccccc4)[C@@H]3CC[C@H]2C(=O)N1C[C@@H]1CCCO1 , z-score observed: 0.141

compound CO[C@H]1COC(=O)CC=C[C@H](C)[C@@H](OC)COC(=O)[C@@H](C)NC(=O)CC=C[C@@H]1C , z-score observed: -0.863

compound COC(=O)[C@@H]1CC[C@@H](C)[C@H](c2ccc(Br)cc2)N1 , z-score observed: -0.0391

compound CCOC(=O)NN=C1C[C@@H](O)[C@@H](O)[C@@H]2[C@@H]3C(=O)N(C(C)(C)C)C(=O)[C@@H]3CC[C@H]12 , z-score observed: 0.16

compound O=c1n(Cc2cc3c(cc2Cl)OCO3)c(=O)n2n1CC[C@@H]1C(=NOC[C@@H](O)COCc3ccco3)[C@H]3O[C@H]3[C@@H](O)[C@@H]12 , z-score observed: 0.012

###

Biological target: Fibroblast growth factor 2 (Homo sapiens)
Experiment: FGF2 binders on small-molecule microarrays, primary screen, biochemical, small-molecule microarray, 635/667 nm fluorescence (AID 1133)
Settings: small-molecule microarray binding, FGF2, fluorescence 635/667; higher = more signal
Answer each item with its documented composite z-score.
Field format: numeric only.

compound C[C@@H](c1ccccc1)N1C(=O)[C@H]2[C@H]3[C@H](O)[C@H](O)CC(=O)[C@H]3CC[C@H]2C1=O , composite z-score observed: 0.284

compound COC(=O)[C@H](C)NC(=O)CCC1CC(OC(=O)NCc2ccc3c(c2)OCO3)CC2(CCCC(COC(=O)NCC(c3ccccc3)c3ccccc3)O2)O1 (some centres undefined) , composite z-score observed: 0.903

compound C=CC[C@@H]1C=C[C@H](ON=C(C)CCC(=O)OC[C@H]2O[C@H](C#Cc3ccccc3)C=C[C@@H]2Oc2ccc(C)cc2)[C@@H](CO)O1 , composite z-score observed: 0.42

compound COc1ccc(O[C@H]2C=C[C@@H](c3ccccc3)O[C@@H]2COC(=O)CCC(C)=NOC(C)CN2CCCc3nc(C)c(C)cc32)cc1 (some centres undefined) , composite z-score observed: 0.584

compound CC(C)(C)N1C(=O)[C@H]2[C@H]3[C@H](O)[C@H](O)CC(=NO[C@@H]4O[C@H](CO)[C@@H](O)[C@H](O)[C@H]4O)[C@H]3CC[C@H]2C1=O , composite z-score observed: 0.348

compound COC(=O)[C@@H]1CC[C@@H](C)[C@H](c2ccc(Br)cc2)N1 , composite z-score observed: -0.0826

compound CCOC(=O)[C@H](CC(C)C)NC(=O)CCC1CC(OC(=O)NCc2cccc3ccccc23)CC2(CCCC(COC(=O)NCc3ccncc3)O2)O1 (some centres undefined) , composite z-score observed: 1.58

compound COCOc1ccc(Br)cc1C(=O)[C@@H]1O[C@H]1c1cccc(OC)c1 , composite z-score observed: -0.0753

compound COc1ccc(COC(=O)NN=C2C[C@@H](O)[C@@H](O)[C@@H]3[C@@H]4C(=O)N(Cc5ccccc5)C(=O)[C@@H]4CC[C@H]23)cc1 , composite z-score observed: -0.977

compound COC(=O)[C@H](C)NC(=O)CCC1CC(OC(=O)NCc2ccc3c(c2)OCO3)CC2(CCCC(COC(=O)NCCc3ccccc3OC)O2)O1 (some centres undefined) , composite z-score observed: -0.0304

compound C=C(C)C(=O)OCC1CN2[C@@H](CC[C@@H](C)[C@@H]2c2ccc(Br)cc2)C(=O)O1 (some centres undefined) , composite z-score observed: 0.192

compound C[C@@H]1C=CCC(=O)OC[C@H]2O[C@@H](C=C[C@@H]2O)[C@H](C)C=CCC(=O)OC1 , composite z-score observed: 1.98

compound CO[C@H]1COC(=O)CC=C[C@H](C)[C@@H](OC)COC(=O)[C@H](C)COC(=O)CC=C[C@@H]1C , composite z-score observed: 1.36

compound COC(=O)CC=C[C@@H](C)[C@@H](C=NOC(C)CN1CCCc2nc(C)c(C)cc21)OC (some centres undefined) , composite z-score observed: 0.604

compound CO[C@H]1COC(=O)CC=C[C@@H](C)[C@H](OC)COC(=O)CCC[C@@H]1C , composite z-score observed: 1.15

compound COc1cccc([C@H]2Oc3ccc(OC)cc3C(=NOC(C)CN3CCCCc4nc(C)c(C)cc43)[C@@H]2O)c1 (some centres undefined) , composite z-score observed: 0.414

compound COc1cccc([C@H]2Oc3ccc(OC)cc3C(=NO[C@@H]3O[C@H](COC(C)=O)[C@@H](OC(C)=O)[C@H](OC(C)=O)[C@H]3OC(C)=O)[C@@H]2O)c1 , composite z-score observed: 0.192

compound O=C1C[C@@H](O)[C@@H](O)[C@@H]2[C@@H]3C(=O)N(Cc4ccc5c(c4)OCO5)C(=O)[C@@H]3CC[C@H]12 , composite z-score observed: 0.19

compound CO[C@H]1COC(=O)[C@@H](C)COC(=O)[C@@H](OCc2ccccc2)C=C[C@@H]1C , composite z-score observed: 0.193

###

Experiment: small-molecule microarray binders of probe aWnt5a, primary screen, biochemical, biotinylated probe, 635/667 nm fluorescence (AID 1113);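 further: score merges 667 nm fluorescence intensity with signal-to-noise per printed feature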
Details: higher = more signal
propertyLabel: composite z-score
Field format: numeric only.

molecule CCOC(=O)CCN1C(=O)[C@H]2[C@H]3[C@H](O)[C@H](O)CC(=NNC(=O)OCc4ccccc4)[C@@H]3CC[C@H]2C1=O , composite z-score observed: -0.0819

molecule O=C1[C@H]2[C@H]3[C@H](O)[C@H](O)CC(=NOCc4ccccc4)[C@@H]3CC[C@H]2C(=O)N1Cc1ccc2c(c1)OCO2 , composite z-score observed: -0.091

molecule CC(CCN1CCCc2nc(C)c(C)cc21)=NO[C@@H](C)c1cc(-c2c(C)cc(C)cc2C)no1 , composite z-score observed: -0.101

molecule CO[C@H]1COC(=O)CC=C[C@H](C)COC(=O)[C@@H](C)NC(=O)CC=C[C@@H]1C , composite z-score observed: -0.0816

molecule CCc1cc2c(nc1CC)CCN(CCC(C)=NO[C@@H](C)c1cn([C@H](CO)Cc3ccccc3)nn1)C2 , composite z-score observed: -0.096

molecule CO[C@@H]1COC(=O)[C@H](CCSC)NC(=O)CC=C[C@@H](C)COC(=O)[C@H](C)NC(=O)CC=C[C@H]1C , composite z-score observed: -0.0179

molecule CO[C@H]1COC(=O)[C@@H](Cc2ccccc2)NC(=O)[C@@H](C)COC(=O)CCC[C@@H]1C , composite z-score observed: -0.0478

molecule CCOC(=O)NN=C1C[C@@H](O)[C@@H](O)[C@@H]2[C@@H]3C(=O)N([C@@H](C)c4ccccc4)C(=O)[C@@H]3CC[C@H]12 , composite z-score observed: -0.124

molecule CCOC(=O)[C@H](Cc1ccccc1)NC(=O)CCC1CC(OC(=O)NCCc2ccc(F)cc2)CC2(CCCC(COC(=O)NCCCN3CCCC3=O)O2)O1 (some centres undefined) , composite z-score observed: -0.0222

molecule CON=Cc1ccc(C(=O)N2[C@H](c3ccc(C)cc3)[C@@H](C)CC[C@H]2C(=O)OC)cc1 , composite z-score observed: -0.0044

molecule C#CCCCON=C1C[C@@H](O)[C@@H](O)[C@@H]2[C@@H]3C(=O)N(C(C)(C)C)C(=O)[C@@H]3CC[C@H]12 , composite z-score observed: 0.0926

molecule CCOC(=O)[C@H](CC(C)C)NC(=O)CCC1CC(OC(=O)NCc2ccc3c(c2)OCO3)CC2(CCCC(COC(=O)NCC(c3ccccc3)c3ccccc3)O2)O1 (some centres undefined) , composite z-score observed: -0.169

molecule COc1ccc(O[C@H]2C=C[C@@H](c3ccccc3)O[C@@H]2CON=C(C)CCC(=O)OC[C@H]2O[C@H](c3ccccc3)C=C[C@@H]2Oc2ccc(OC)cc2)cc1 , composite z-score observed: -0.176

molecule COC(=O)CC=C[C@@H](C)[C@@H](C=NOC[C@H]1O[C@H](c2ccccc2)C=C[C@@H]1Oc1ccc(OC)cc1)OC , composite z-score observed: -0.106

molecule O=C(NN=C1C[C@@H](O)[C@@H](O)[C@@H]2[C@@H]3C(=O)N(C4CCCCC4)C(=O)[C@@H]3CC[C@@H]12)OCc1ccccc1 , composite z-score observed: -0.115

molecule Cc1ccc(S(=O)(=O)n2c3ccccc3c3nnc(C(=O)c4ccccc4)nc32)cc1 , composite z-score observed: 0.0491

molecule Cc1cc2c(nc1C)CCCCN2CC(C)ON=C1[C@H]2CCn3c(=O)n(-c4ccccc4)c(=O)n3[C@H]2[C@H](O)[C@@H]2O[C@H]12 (some centres undefined) , composite z-score observed: 0.0839

molecule Cc1cc2c(nc1C)CCCCN2CC(C)ON=C[C@@H](C)[C@H](OCc1ccccc1)C(C)C (some centres undefined) , composite z-score observed: -0.224

molecule CCOC(=O)[C@H](CC(C)C)NC(=O)CCC1CC(OC(=O)NCCc2ccc(F)cc2)CC2(CCCC(COC(=O)NCC3CCCCC3)O2)O1 (some centres undefined) , composite z-score observed: -0.19
